assay-metric: melting point (°C)
Give just the numeric value; °C need not be written.

compound	unit-info	melting point
O[C@@H]1CCC[C@@H]1Oc1cccc2onc(OCC3CCN(CC4(O)CCOCC4)CC3)c12 (relative stereo)	°C	140.8
CC(C)(CN1CCC(COc2noc3cccc(OCC(F)(F)F)c23)CC1)C(=O)O	°C	129.2

Would you kindly share the measured melting point for CC(C)COc1cccc2onc(OCC3CCN(CC4(C(=O)O)CCC4)CC3)c12 ?
168.8

Find the recorded melting point belonging to O=C(O)C1(CN2CCC(COc3noc4cccc(OCC5CCC5)c34)CC2)CCCC1 and report it.
173.8

Need melting point, item CC(C)(CN1CCC(COc2noc3cccc(OCC4CCC4)c23)CC1)C(=O)O
139.8

Bench note: what melting point did O=C(O)C1(CN2CCC(COc3noc4cccc(OCC5CCCC5)c34)CC2)CCOCC1 show?
185.6

Look at this compound and give its reported melting point. CC(C)COc1cccc2onc(OCCC3CCN(CC4(C(=O)O)CCOCC4)CC3)c12
117.8

What measured melting point goes with O=C(O)C1(CN2CCC(COc3noc4cccc(O[C@H]5CC[C@@H](CO)CC5)c34)CC2)CCOCC1 ?
197.2

Entry O=C(O)C1(CN2CCC(COc3noc4cccc(O[C@H]5CC[C@@H](CO)CC5)c34)CC2)CCCC1 : reported melting point = ?
188

====

assay-metric: melting point (°C)
Give the quantity in °C, number only.

Observe how each entry below is paired with its result.
compound	assay-metric	unit-info	recorded-number
O=C(O)C1(CN2CCC(COc3noc4cccc(OC5CCCC5)c34)CC2)CCOCC1 [Example 24]	melting point	°C	177.7
CC(C)COc1cccc2onc(OCC3CCN(C[C@H]4CC[C@H](C(=O)O)CC4)CC3)c12 [Example 14]	melting point	°C	103.3

Which melting point is reported for this compound? CC(C)COc1cccc2onc(OCC3CCN(CCC4(C(=O)O)CCOCC4)CC3)c12 [Example 13]
213.8

Value lookup for melting point; key = O=C(O)C1(CN2CCC(COc3noc4cccc(OCC(F)(F)F)c34)CC2)CCC1 [Example 2]
164.9

Query: melting point; subject: O=C(O)[C@H]1CC[C@H](CN2CCC(COc3noc4cccc(OC5CCOCC5)c34)CC2)CC1 [Example 29]
154.6

# melting point lookup, item OC1(COc2cccc3onc(OCC4CCN(CC5(O)CCOCC5)CC4)c23)CCCC1 [Example 31]
136.5

====

- assayed-system: Human 5-HT4(d) (Homo sapiens)
- Sequence (Q13639 1-360 isoform Q13639-3): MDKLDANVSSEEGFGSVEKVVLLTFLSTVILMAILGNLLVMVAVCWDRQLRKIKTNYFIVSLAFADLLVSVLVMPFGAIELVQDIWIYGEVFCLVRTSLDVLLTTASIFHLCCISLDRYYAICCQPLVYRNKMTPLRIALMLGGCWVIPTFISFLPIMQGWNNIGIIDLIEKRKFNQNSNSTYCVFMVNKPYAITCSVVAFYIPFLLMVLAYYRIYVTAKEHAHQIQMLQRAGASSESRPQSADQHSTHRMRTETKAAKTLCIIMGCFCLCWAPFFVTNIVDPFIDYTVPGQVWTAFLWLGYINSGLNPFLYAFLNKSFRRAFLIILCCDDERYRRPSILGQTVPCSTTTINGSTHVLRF
- method-description: Agonist-induced cAMP elevation in human 5-HT4(d) transfected HEK293 cells
- measurement-setup: cAMP elevation (HTRF), human 5-HT4(d) transfected HEK293 cells
assay-metric: EC50 (nM)
Answer with a number only, understood to be in nM.

Sample records with EC50:
compound	unit-info	EC50
O=C(O)C1(CN2CCC(COc3noc4cccc(OC5CCOCC5)c34)CC2)CCCC1	nM	6.6
O=C(O)C1(CN2CCC(CNc3noc4cccc(OCC(F)(F)F)c34)CC2)CCOCC1	nM	2.8
CC(C)COc1cccc2onc(OCC3CCN(CC4(C(=O)O)CCOCC4)CC3)c12	nM	3.1
O[C@@H]1CCC[C@@H]1Oc1cccc2onc(OCC3CCN(CC4(O)CCOCC4)CC3)c12 (relative stereo)	nM	1.9

Field: EC50 (Human 5-HT4(d) (Homo sapiens)). Entry: O=C(O)C1(CN2CCC(COc3noc4cccc(OCC(F)(F)F)c34)CC2)CCOCC1
1.5

Query for Human 5-HT4(d) (Homo sapiens): what EC50 does the record show for O=C(O)C1(CN2CCC(COc3noc4cccc(OCC(F)(F)F)c34)CC2)CCC1 ?
0.51

Param readout= EC50; system= Human 5-HT4(d) (Homo sapiens); entry= O=C(O)C1(CCN2CCC(COc3noc4cccc(OCC5CCCC5)c34)CC2)CCOCC1 ; returns value.
22

Find the measured EC50: item O=C(O)C1(CCN2CCC(COc3noc4cccc(OC5CCCC5)c34)CC2)CCOCC1 , target or system Human 5-HT4(d) (Homo sapiens).
3

Please tell me: EC50 of O=C(O)C1(CN2CCC(COc3noc4cccc(OCC5CCCC5)c34)CC2)CCOCC1 , system Human 5-HT4(d) (Homo sapiens)?
4.4
